// data source = patent US20210324080A1

The entries below come with measured IL-2 secretion, pg/ml, at 0.13 ug/ml, N = 2 values attached.
- Tgt: T1, CTLA-4 on human T lymphocytes (PBMC, CD3+ T cells) (human, UniProt P16410 36-223)
- T1 sequence (looked up): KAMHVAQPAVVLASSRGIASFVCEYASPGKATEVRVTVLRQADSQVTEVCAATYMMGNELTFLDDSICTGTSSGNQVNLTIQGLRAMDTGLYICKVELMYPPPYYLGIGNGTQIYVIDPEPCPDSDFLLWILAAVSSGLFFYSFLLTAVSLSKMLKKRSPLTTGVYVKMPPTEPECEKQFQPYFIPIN
- Assay explanation: cell-based or functional assay

| Binder | Observed value |
| --- | --- |
| 31C12F3 fully human CTLA-4 antibody (human IgG1, kappa) (antibody, V domains shown, also called mAb010) VH: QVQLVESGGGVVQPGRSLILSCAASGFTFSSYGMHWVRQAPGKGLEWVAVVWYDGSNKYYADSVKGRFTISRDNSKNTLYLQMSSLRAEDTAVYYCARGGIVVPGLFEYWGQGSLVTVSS VL: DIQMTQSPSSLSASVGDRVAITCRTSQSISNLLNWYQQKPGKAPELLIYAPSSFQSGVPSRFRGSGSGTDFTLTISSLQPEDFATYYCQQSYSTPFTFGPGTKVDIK | 1630 pg/mL |
| 40C4C6 fully human CTLA-4 antibody (human IgG1, kappa) (antibody, V domains shown, also called mAb09; mAb009) VH: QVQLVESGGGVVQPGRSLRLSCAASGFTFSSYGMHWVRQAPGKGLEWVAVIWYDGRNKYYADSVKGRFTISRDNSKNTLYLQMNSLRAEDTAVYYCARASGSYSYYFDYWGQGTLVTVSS VL: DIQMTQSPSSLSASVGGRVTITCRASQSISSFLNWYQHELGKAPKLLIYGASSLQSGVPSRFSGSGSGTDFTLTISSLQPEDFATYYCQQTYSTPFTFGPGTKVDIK | 1830 pg/mL |
| 92C8B6 fully human CTLA-4 antibody (human IgG1, kappa) (antibody, V domains shown, also called mAb42; mAb042) VH: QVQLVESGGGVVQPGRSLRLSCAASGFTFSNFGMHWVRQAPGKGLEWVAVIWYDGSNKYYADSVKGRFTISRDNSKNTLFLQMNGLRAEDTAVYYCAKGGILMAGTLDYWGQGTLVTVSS VL: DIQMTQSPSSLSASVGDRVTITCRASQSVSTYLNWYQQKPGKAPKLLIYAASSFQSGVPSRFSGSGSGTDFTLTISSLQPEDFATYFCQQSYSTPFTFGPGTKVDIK | 1390 pg/mL |

Quick one: IL-2 secretion, pg/ml, at 0.13 ug/ml, N = 2 for 97A8D1 fully human CTLA-4 antibody (human IgG1, kappa) (antibody, V domains shown, also called mAb49; mAb049) VH: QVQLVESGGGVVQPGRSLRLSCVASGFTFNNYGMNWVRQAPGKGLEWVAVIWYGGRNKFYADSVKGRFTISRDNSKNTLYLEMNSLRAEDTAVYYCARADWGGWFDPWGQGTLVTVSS VL: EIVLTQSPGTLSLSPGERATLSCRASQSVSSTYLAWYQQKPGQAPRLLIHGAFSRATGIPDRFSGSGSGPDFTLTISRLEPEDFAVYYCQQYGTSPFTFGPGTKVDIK ?
1500 pg/mL
